// provenance: patent US11254680B2

Assay: Caco-2 Permeability Assay
Type: in vitro ADME
Details: human, Caco-2
The following molecules are shown together with reported efflux ratio at 120 min values.
Response field accepts a number only; no unit should be typed.

Example molecules with recorded efflux ratio at 120 min:
molecule	measured value
N#Cc1c(NS(=O)(=O)c2ccccc2F)cccc1Oc1ccc2c(c1)C1=NCCN1C=N2 [Compound 14]	2.77
CCCS(=O)(=O)Nc1cccc(Oc2ccc3c(c2)C2=NCCN2C=N3)c1Cl [Compound 6]	0.31
CCCS(=O)(=O)Nc1cccc(Oc2ccc3c(c2)C2=NCCCN2C=N3)c1Cl [Compound 21]	0.36
CCCS(=O)(=O)Nc1cccc(Oc2ccc3c(c2)C2=NCCCN2C=N3)c1F [Compound 18]	2.2
N#Cc1c(NS(=O)(=O)c2cccs2)cccc1Oc1ccc2c(c1)C1=NCCN1C=N2 [Compound 15]	2.94
CCCS(=O)(=O)Nc1ccc(F)c(Oc2ccc3c(c2)C2=NCCN2C=N3)c1C#N [Compound 3]	1.48

Moving on to the next molecule.
[Q] Quick one: efflux ratio at 120 min for CCCS(=O)(=O)Nc1cccc(Oc2ccc3c(c2)C2=NCCN2C=N3)c1C#N [Compound 1] ?
[A] 2.92
